Molecular target: T7 RNA polymerase (Escherichia phage T7, UniProt P00573)
Sequence (P00573 whole entry): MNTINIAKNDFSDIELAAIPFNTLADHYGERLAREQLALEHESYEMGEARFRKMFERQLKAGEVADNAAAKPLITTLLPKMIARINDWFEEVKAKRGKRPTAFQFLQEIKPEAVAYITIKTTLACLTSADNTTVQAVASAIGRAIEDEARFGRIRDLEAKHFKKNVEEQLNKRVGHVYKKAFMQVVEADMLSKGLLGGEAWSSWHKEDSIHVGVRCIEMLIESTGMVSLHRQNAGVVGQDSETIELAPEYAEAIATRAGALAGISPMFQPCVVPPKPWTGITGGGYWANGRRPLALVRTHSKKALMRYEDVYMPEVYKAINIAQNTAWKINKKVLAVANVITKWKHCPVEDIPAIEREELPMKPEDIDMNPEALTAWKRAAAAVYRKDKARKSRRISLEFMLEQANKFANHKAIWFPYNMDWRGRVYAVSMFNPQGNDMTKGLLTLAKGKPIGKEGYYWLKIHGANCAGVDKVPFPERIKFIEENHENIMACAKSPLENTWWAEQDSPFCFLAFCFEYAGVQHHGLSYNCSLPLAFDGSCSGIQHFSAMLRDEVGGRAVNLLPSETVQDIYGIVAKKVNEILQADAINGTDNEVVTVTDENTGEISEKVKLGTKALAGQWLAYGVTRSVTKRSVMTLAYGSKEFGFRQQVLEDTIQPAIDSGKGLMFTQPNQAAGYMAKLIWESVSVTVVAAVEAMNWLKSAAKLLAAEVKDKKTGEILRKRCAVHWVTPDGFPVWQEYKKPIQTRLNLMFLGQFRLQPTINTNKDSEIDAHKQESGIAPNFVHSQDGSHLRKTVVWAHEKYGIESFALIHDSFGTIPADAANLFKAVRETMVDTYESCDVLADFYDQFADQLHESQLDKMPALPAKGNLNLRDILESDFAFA
Experiment: In vitro transcription yields of modified mRNA
Type: biochemical
Details: GCSF mRNA made with the modified NTP(s)
readoutType: GCSF In Vitro Transcription yield (mg)
Provide the reading as a plain figure in mg.

compound: Nc1ccn([C@@H]2O[C@H](COP(=O)(O)OP(=O)(O)OP(=O)(O)O)C(O)C2O)c(=S)n1 (some centres unmarked)
GCSF In Vitro Transcription yield, mg: 0.0076
//
compound: Cn1cc([C@@H]2O[C@H](COP(O)(=S)OP(=O)(O)OP(=O)(O)O)C(O)C2O)c(=O)[nH]c1=O (stereo in doubt)
GCSF In Vitro Transcription yield, mg: 0.6582
//
compound: CC(=O)Nc1ccn([C@@H]2O[C@H](COP(=O)(O)OP(=O)(O)OP(=O)(O)O)C(O)C2O)c(=O)n1 (stereo in doubt)
GCSF In Vitro Transcription yield, mg: 0.3658
//
compound: O=c1[nH]cc([C@@H]2O[C@H](COP(O)(=S)OP(=O)(O)OP(=O)(O)O)C(O)C2O)c(=O)[nH]1 (stereo in doubt)
GCSF In Vitro Transcription yield, mg: 0.5522

We next turn to a different compound, shown below.
Requested field: GCSF In Vitro Transcription yield. Item: O=c1[nH]c(=O)n([C@@H]2O[C@H](COP(=O)(O)OP(=O)(O)OP(=O)(O)O)C(O)C2O)cc1Br (stereo in doubt)
0.3566

====

Target: T7 RNA polymerase (Escherichia phage T7, UniProt P00573)
Test: In vitro transcription yields of modified mRNA
Format: biochemical
Details: GCSF mRNA made with the modified NTP(s)
readoutType: GCSF In Vitro Transcription yield (mg)
Provide the reading as a plain figure in mg.

Study these solved cases before continuing.
compound: Nc1ncnc2c1nnn2[C@@H]1O[C@H](COP(=O)(O)OP(=O)(O)OP(=O)(O)O)C(O)C1O (some centres unmarked) [00901011003 (377), 8-Aza-ATP]
targetEntity: T7 RNA polymerase (Escherichia phage T7, UniProt P00573)
quantitativeResult: 0.03
--
compound: O=c1ccn([C@@H]2O[C@H](COP(O)(=S)OP(=O)(O)OP(=O)(O)O)C(O)C2O)c(=O)[nH]1 (stereo in doubt) [Compound 00902013001, Alpha-thio-UTP]
targetEntity: T7 RNA polymerase (Escherichia phage T7, UniProt P00573)
quantitativeResult: 0.2605
--
compound: CNCc1cn([C@@H]2O[C@H](COP(=O)(O)OP(=O)(O)OP(=O)(O)O)C(O)C2O)c(=O)[nH]c1=O (some centres unmarked) [00901013006 (353), 5-Methylamino methyl-UTP]
targetEntity: T7 RNA polymerase (Escherichia phage T7, UniProt P00573)
quantitativeResult: 0.3494
--
compound: NC/C=C/c1cn([C@@H]2O[C@H](COP(=O)(O)OP(=O)(O)OP(=O)(O)O)C(O)C2O)c(=O)nc1N (stereo in doubt) [03601014009 (381), 5-Aminoallyl-CTP]
targetEntity: T7 RNA polymerase (Escherichia phage T7, UniProt P00573)
quantitativeResult: 0.4567

We next turn to a different compound, shown below.
Requested field: GCSF In Vitro Transcription yield. Item: Nc1nc(=O)n([C@@H]2O[C@H](COP(=O)(O)OP(=O)(O)OP(=O)(O)O)C(O)C2O)cc1CO (stereo in doubt) [00901014005 (350), 5-Hydroxymethyl-CTP]
0.6391
